# Tested on: Rattus norvegicus
# assay notes: Concentration (30 mg/kg, p.o.) in rat hypothalamus after 6 hours
# Format: ADME, organism-based
# measurement context: in vivo, po, 6 h
property: Concentration (µg/g)
Use µg/g as the unit, but write only the number.

[ask] Sample O=C([C@H]1CCCO1)N1CCC(CNc2nc3c(s2)CCCc2ccc(F)cc2-3)CC1 — what was its Concentration?
[reply] 0.67

* * *

# assay notes: Concentration (30 mg/kg, p.o.) in rat hypothalamus after 6 hours
# Format: ADME, organism-based
# measurement context: hypothalamus, po
Please assign 0.0 whenever concentration at 6 h is at or above 600 ng/g, and 1.0 whenever it is below.

CC(=O)N1CCC(CNc2nc3c(s2)CCCc2ccc(F)cc2-3)CC1	1.0
Cc1ccc2c(c1)-c1nc(NCC3CCN(C(=O)[C@H]4CCCO4)CC3)sc1CCO2	1.0
O=C([C@H]1CCCO1)N1CCC(CNc2nc3c(s2)CCOc2ccc(F)cc2-3)CC1	0.0
O=C(CN1CCCCC1)N1CCC(CNc2nc3c(s2)CCCc2ccc(F)cc2-3)CC1	0.0
O=C([C@H]1CCCO1)N1CCC(CNc2nc3c(s2)CCCc2ccc(F)cc2-3)CC1	0.0

[ask] Report whether reported concentration at 6 h is lower than 600 ng/g (strictly) for CCCCC(=O)N1CCC(CNc2nc3c(s2)CCOc2ccc(F)cc2-3)CC1
[reply] 1.0

[ask] Now give it for O=C([C@@H]1CCCO1)N1CCC(CNc2nc3c(s2)CCOc2ccc(F)cc2-3)CC1 too.
[reply] 0.0

[ask] Please give the result for Cc1ccc2c(c1)-c1nc(NCC3CCN(C(=O)C(C)C)CC3)sc1CCO2 too.
[reply] 0.0

[ask] Cool, now O=C(C1CCOC1)N1CCC(CNc2nc3c(s2)CCCc2ccc(F)cc2-3)CC1 (centres undefined)
[reply] 1.0

* * *

# tgt: Neuropeptide Y receptor type 5 (Homo sapiens)
# Sequence (Q15761 whole entry): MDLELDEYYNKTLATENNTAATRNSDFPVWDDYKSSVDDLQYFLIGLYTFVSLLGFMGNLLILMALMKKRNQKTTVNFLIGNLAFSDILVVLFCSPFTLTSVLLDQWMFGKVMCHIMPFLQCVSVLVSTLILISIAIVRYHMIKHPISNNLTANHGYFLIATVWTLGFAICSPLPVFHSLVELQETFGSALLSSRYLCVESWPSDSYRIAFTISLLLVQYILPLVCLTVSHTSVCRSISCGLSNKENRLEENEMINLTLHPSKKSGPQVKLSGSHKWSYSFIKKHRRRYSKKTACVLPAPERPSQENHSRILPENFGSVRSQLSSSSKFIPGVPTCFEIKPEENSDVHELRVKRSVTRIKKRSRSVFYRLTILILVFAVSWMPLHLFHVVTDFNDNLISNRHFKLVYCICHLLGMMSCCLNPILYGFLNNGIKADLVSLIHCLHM
# assay notes: In vitro binding affinity against human neuropeptide Y5 receptor
property: IC50 (nM)
Give your result in nM as a bare value.

CN(C)CC(=O)N1CCC(CNc2nc3c(s2)CCCc2ccc(F)cc2-3)CC1	4
CC(=O)N1CCC(CNc2nc3c(s2)CCCc2ccc(F)cc2-3)CC1	2
COc1ccc2c(c1)-c1nc(NCC3CCN(C(=O)CCN4CCCCC4)CC3)sc1CCO2	2460
O=C([C@H]1CCCO1)N1CCC(CNc2nc3c(s2)CCCc2ccc(F)cc2-3)CC1	2
CN(C)S(=O)(=O)NC[C@H]1CC[C@H](Nc2nc3c(s2)-c2ccccc2Sc2ccccc2-3)CC1	15
CCOCC(=O)N1CCC(CNc2nc3c(s2)CCOc2ccc(F)cc2-3)CC1	28

[ask] Entry CN1CCN(CC(=O)N2CCC(CNc3nc4c(s3)CCCc3ccc(F)cc3-4)CC2)CC1 , system Neuropeptide Y receptor type 5 (Homo sapiens): what IC50 was measured?
[reply] 24

[ask] What do you get for CC(C)C(=O)N1CCC(CNc2nc3c(s2)CCCc2ccc(F)cc2-3)CC1 ?
[reply] 2

[ask] Next: O=C(CN1CCCCC1)N[C@H]1CC[C@H](CNc2nc3c(s2)CCCc2ccc(F)cc2-3)CC1
[reply] 29

[ask] Do the same for CN(C)CC(=O)N[C@H]1CC[C@H](CNc2nc3c(s2)CCCc2ccc(F)cc2-3)CC1 please
[reply] 81

[ask] Same question, CN(CC(=O)N1CCC(CNc2nc3c(s2)CCCc2ccc(F)cc2-3)CC1)CC1CC1 this time
[reply] 3

[ask] Quick one: COCCNCC(=O)N1CCC(CNc2nc3c(s2)CCCc2ccc(F)cc2-3)CC1
[reply] 2

[ask] Same for O=C(CN1CCOCC1)N1CCC(CNc2nc3c(s2)CCCc2ccc(F)cc2-3)CC1
[reply] 2

[ask] Same again, this time with Fc1ccc(-c2csc(Nc3ccccc3)n2)cc1
[reply] 1600

[ask] Same question, CCCCC(=O)N1CCC(CNc2nc3c(s2)CCOc2cc(F)c(Cl)cc2-3)CC1 this time
[reply] 20

[ask] Next up: O=C(N[C@H]1CC[C@H](CNc2nc3c(s2)CCCc2ccc(F)cc2-3)CC1)C1CC1
[reply] 6

[ask] Likewise for O=C(CC1CC1)N[C@H]1CC[C@H](CNc2nc3c(s2)CCCc2ccc(F)cc2-3)CC1 ?
[reply] 6

These measurements were taken from ChEMBL document CHEMBL1146725.
